System: SK-MEL-2 melanoma
Test: NCI-60 one-dose screen, 48 h (100 = growth as untreated, 0 = no growth, -100 = all killed)
Conditions: 10 µM
About 83,000 compounds went through this panel and 20% of them were active in at least one assay; those are over-represented in the sample as a whole.
Tag: MET if measured growth is not below 10%, NOT MET if it is.

compound=Cc1ccc(-c2cc(-c3cc4ccccc4nc3Cl)[nH]c(=S)n2)cc1 group=MET
compound=COc1cc(OC(F)(F)F)ccc1C(=O)Nc1sc2c(c1C#N)CCC(=O)C2 group=MET
compound="C=C1CCC2C3(C)COC(c4ccccc4F)OC3CCC2(C)C1C/C=C1/C(=O)OCC1O (stereo not drawn)" group="NOT MET"
compound=Cc1ccc(S(=O)(=O)c2nc(-c3ccccc3)oc2S(=O)(=O)CC(=O)N2CCCC2)cc1 group="NOT MET"
compound="O=C1CCC(N2Cc3c(NCc4ccc(-c5ccccc5)cc4)cccc3C2=O)C(=O)N1 (stereo not drawn)" group=MET
compound=COc1cccc(-c2ccc(/C=N/NC(=O)c3[nH]c4ccc(Br)cc4c3-c3ccccc3)o2)c1 group=MET
compound=O=C(O)CCCCCCCCCCN1C(=O)/C(=C/c2cnc(-c3ccccc3)s2)SC1=S group=MET
compound=COc1ccc(-c2cc(-c3cc(C(=O)c4ccc(Br)cc4)n4ccc(C)cc34)nc(N)c2C#N)cc1 group=MET
compound=Cc1noc2c(Cc3ccc([N+](=O)[O-])cc3)nn(CC(=O)N/N=C/c3ccc(Br)cc3)c(=O)c12 group=MET
compound=O=C(Nc1ccc(OCc2ccccc2)cc1)Nc1ccc(Cl)c(C(F)(F)F)c1 group="NOT MET"
compound=O=C1NC(=NC23CC4CC(CC(C4)C2)C3)N/C1=C\c1ccc2ncoc2c1 group="NOT MET"
compound=N#Cc1ccc(-c2nn(-c3ccc(C(=O)O)cc3)cc2CNc2cccc(Br)c2)cc1 group=MET
compound=NC(=Nc1ccc(OCCCCCCCCn2ccnn2)cc1)c1ccccc1 group=MET
compound=C[C@H]1[C@H](C)CC[C@]2(COC(=O)CCC(=O)NCC#CCN3CCNCC3)CC[C@]3(C)C(=CC[C@@H]4[C@@]5(C)CCCNC(C)(C)[C@@H]5CC[C@]43C)[C@H]12 group=MET
compound="COC(=O)C(Cc1ccc(O)c(O)c1)NC(=O)C(CSC/C=C(\\C)CCCC(C)CCCC(C)CCCC(C)C)NC(C)=O (stereo not drawn)" group=MET
compound=COc1ccccc1C(=O)NNC(=O)CSc1nc2c(c(=O)[nH]1)CCCC2 group=MET
compound=COc1ccc(C=CC(=O)c2ccc(-n3c(C)nc4c(cnn4-c4ccccc4)c3=O)cc2)cc1 group=MET
compound=COC1=C[C@]23CCC(=O)N2CCc2cc4c(cc2[C@@H]3[C@@H]1OC(=O)CCCC(C)C)OCO4 group=MET
